test system: Staphylococcus aureus 491; assay: MIC, standard broth micro-dilution assay; type: cell-based
MIC reference
Respond numerically; units are µg/mL and should not be typed.

CNC(CC(C)C)C(=O)NC1C(=O)NC(CC(N)=O)C(=O)NC2C(=O)NC3C(=O)NC(C(=O)NC(C(=O)O)c4cc(O)cc(O)c4-c4cc3ccc4O)C(OC3CC(C)(N)C(O)C(C)O3)c3ccc(c(Cl)c3)Oc3cc2cc(c3OC2OC(CO)C(O)C(O)C2OC2CC(C)(NCC(C)=Cc3ccc(C(C)(C)C)cc3)C(O)C(C)O2)Oc2ccc(cc2Cl)C1O (centres unmarked)
0.5

--- query ---
[Q] Fill blank: measured MIC of the compound CNC(CC(C)C)C(=O)NC1C(=O)NC(CC(N)=O)C(=O)NC2C(=O)NC3C(=O)NC(C(=O)NC(C(=O)O)c4cc(O)cc(O)c4-c4cc3ccc4O)C(OC3CC(C)(N)C(O)C(C)O3)c3ccc(c(Cl)c3)Oc3cc2cc(c3OC2OC(CO)C(O)C(O)C2OC2CC(C)(NCCCCCCCCOc3ccc(Oc4ccccc4)cc3)C(O)C(C)O2)Oc2ccc(cc2Cl)C1O (centres unmarked) is ____.
[A] 8

----------
This listing pairs molecules with measured MIC.
Tested on: Staphylococcus aureus 491
Experiment: MIC, standard broth micro-dilution assay
Type: cell-based
Experimental: The MIC's were determined using a standard broth micro-dilution assay.
Quick note: give the figure in µg/mL, leave out the unit.

CNC(CC(C)C)C(=O)NC1C(=O)NC(CC(N)=O)C(=O)NC2C(=O)NC3C(=O)NC(C(=O)NC(C(=O)O)c4cc(O)cc(O)c4-c4cc3ccc4O)C(OC3CC(C)(N)C(O)C(C)O3)c3ccc(c(Cl)c3)Oc3cc2cc(c3OC2OC(CO)C(O)C(O)C2OC2CC(C)(NCc3ccc4c(c3)OCO4)C(O)C(C)O2)Oc2ccc(cc2Cl)C1O (stereo not drawn)
0.25
CNC(CC(C)C)C(=O)NC1C(=O)NC(CC(N)=O)C(=O)NC2C(=O)NC3C(=O)NC(C(=O)NC(C(=O)O)c4cc(O)cc(O)c4-c4cc3ccc4O)C(OC3CC(C)(N)C(O)C(C)O3)c3ccc(c(Cl)c3)Oc3cc2cc(c3OC2OC(CO)C(O)C(O)C2OC2CC(C)(NCc3ccc(Cc4ccccc4)cc3)C(O)C(C)O2)Oc2ccc(cc2Cl)C1O (stereo not drawn)
0.5
CNC(CC(C)C)C(=O)NC1C(=O)NC(CC(N)=O)C(=O)NC2C(=O)NC3C(=O)NC(C(=O)NC(C(=O)O)c4cc(O)cc(O)c4-c4cc3ccc4O)C(OC3CC(C)(N)C(O)C(C)O3)c3ccc(c(Cl)c3)Oc3cc2cc(c3OC2OC(CO)C(O)C(O)C2OC2CC(C)(NCc3cccc4c([N+](=O)[O-])cccc34)C(O)C(C)O2)Oc2ccc(cc2Cl)C1O (stereo not drawn)
0.125
CNC(CC(C)C)C(=O)NC1C(=O)NC(CC(N)=O)C(=O)NC2C(=O)NC3C(=O)NC(C(=O)NC(C(=O)O)c4cc(O)cc(O)c4-c4cc3ccc4O)C(OC3CC(C)(N)C(O)C(C)O3)c3ccc(c(Cl)c3)Oc3cc2cc(c3OC2OC(CO)C(O)C(O)C2OC2CC(C)(NCc3ccc(C(O)c4ccccc4)cc3)C(O)C(C)O2)Oc2ccc(cc2Cl)C1O (stereo not drawn) [Compound 109, 4-[alpha-hydroxybenzyl]benzyl]
0.25
CNC(CC(C)C)C(=O)NC1C(=O)NC(CC(N)=O)C(=O)NC2C(=O)NC3C(=O)NC(C(=O)NC(C(=O)O)c4cc(O)cc(O)c4-c4cc3ccc4O)C(OC3CC(C)(N)C(O)C(C)O3)c3ccc(c(Cl)c3)Oc3cc2cc(c3OC2OC(CO)C(O)C(O)C2OC2CC(C)(NCc3ccc(C(c4ccccc4)c4ccccc4)cc3)C(O)C(C)O2)Oc2ccc(cc2Cl)C1O (stereo not drawn)
2

[Q] Which measured MIC value corresponds to CNC(CC(C)C)C(=O)NC1C(=O)NC(CC(N)=O)C(=O)NC2C(=O)NC3C(=O)NC(C(=O)NC(C(=O)O)c4cc(O)cc(O)c4-c4cc3ccc4O)C(OC3CC(C)(N)C(O)C(C)O3)c3ccc(c(Cl)c3)Oc3cc2cc(c3OC2OC(CO)C(O)C(O)C2OC2CC(C)(NCc3cc(-c4ccccc4)nc4ccc(OC)cc34)C(O)C(C)O2)Oc2ccc(cc2Cl)C1O (stereo not drawn) [Compound 45, 4-[2-phenyl-6-methoxy]quinoylmethyl] ?
[A] 1
